System: RSK1(Kin.Dom.1-N-terminal)
Construct: gene RPS6KA1
measurement.setup: concentration: 1 μM, replicates: in singlicate; n = 1;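 further: KINOMEscan kinase panel screen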
readout.type: %Inh (%)
Write the value in % as a bare number.

Form field: %Inh recorded for Nc1nccc(-c2c(-c3ccc(F)cc3)ncn2C2CCN(CC(F)(F)F)CC2)n1 with RSK1(Kin.Dom.1-N-terminal) (enter value)
0

Form field: %Inh recorded for Fc1ccc(-c2ncn(CCCN3CCOCC3)c2-c2cccnc2)cc1 with RSK1(Kin.Dom.1-N-terminal) (enter value)
2

Form field: %Inh recorded for COCCNC(=O)c1ccc(-c2cc(C(=O)NC3CC3)cc(F)c2C)cc1 with RSK1(Kin.Dom.1-N-terminal) (enter value)
21

Form field: %Inh recorded for Fc1ccc(-c2nn3c(OCC(F)(F)F)cccc3c2-c2ccncc2)cc1 with RSK1(Kin.Dom.1-N-terminal) (enter value)
6

Form field: %Inh recorded for CN(C(=O)c1ccc(-c2cc(-c3c[nH]nc3-c3ccccn3)ccn2)cc1)C1CCOCC1 with RSK1(Kin.Dom.1-N-terminal) (enter value)
0

Form field: %Inh recorded for O=c1cc(N2CCOCC2)nc2n(Cc3cccc(F)c3)ccn12 with RSK1(Kin.Dom.1-N-terminal) (enter value)
0

Form field: %Inh recorded for CC(C)(C)n1cnc2c(N)ncnc21 with RSK1(Kin.Dom.1-N-terminal) (enter value)
0

Form field: %Inh recorded for CC(=O)Nc1ccc(COc2ccc(Nc3ccnc4cc(-c5ccccn5)ccc34)cc2)cc1.Cl with RSK1(Kin.Dom.1-N-terminal) (enter value)
7

* * *

Test system: TAK1
Construct: gene MAP3K7
measurement.setup: concentration: 1 μM, replicates: in singlicate; n = 1
Item-by-item account of %Inh
Write the value in % as a bare number.

Would you please look over these solved cases?
>  <compound>
Cc1c2ccc(N(C)c3ccnc(Nc4cccc(S(N)(=O)=O)c4)n3)cc2nn1Cc1ccccc1.Cl.Cl

>  <%Inh (%)>
4

$$$$
>  <compound>
COc1cc2c(cc1OCCN1CCN(C)CC1)ncc1c3ccc(C#N)cc3[nH]c21

>  <%Inh (%)>
90.6

$$$$

Consider the record given below.
Tell me the measured %Inh of O=C1Cc2cc(Nc3nc(NCc4cccc(S(=O)(=O)C(F)(F)F)c4)ncc3C(F)(F)F)ccc2N1 , please.
5

* * *

Test system: PIP5K2C
Construct: gene PIP4K2C
measurement.setup: concentration: 1 μM, replicates: in singlicate; n = 1
Item-by-item account of %Inh
Write the value in % as a bare number.

>  <compound>
Cc1cn2c(=O)cc(N3CCOCC3)nc2n1Cc1cccc(Cl)c1Cl

>  <units.label>
%

>  <%Inh>
10

$$$$
>  <compound>
Cc1c(Cn2c(C)nn3c(=O)cc(N4CCOC(C)C4)nc23)cccc1C(F)(F)F (stereo not drawn)

>  <units.label>
%

>  <%Inh>
0

$$$$
>  <compound>
Cc1ccc(C(=O)NCC(N)=O)cc1-n1c(C)cc(OCc2ccc(F)cc2F)c(Br)c1=O

>  <units.label>
%

>  <%Inh>
31

$$$$
>  <compound>
Cn1cc(-c2ccc3c(c2)CCN3C(=O)Cc2ccccc2Cl)c2c(N)ncnc21

>  <units.label>
%

>  <%Inh>
90.5

$$$$
>  <compound>
Cl.Nc1ncnc2occ(-c3ccc(NC(=O)Nc4cc(C(F)(F)F)ccc4F)cc3)c12

>  <units.label>
%

>  <%Inh>
45

$$$$
>  <compound>
COC(=O)Nc1nc2cc(Oc3ccc(NC(=O)Nc4cc(F)ccc4F)cc3)ccc2[nH]1.Cl

>  <units.label>
%

>  <%Inh>
40

$$$$

Tell me the measured %Inh of CN(C(=O)c1ccc(-c2cc(-c3c[nH]nc3-c3ccccn3)ccn2)cc1)C1CCOCC1 , please.
49

Tell me the measured %Inh of O=C(NCCNc1ccnc(Nc2ccc(F)cc2)n1)c1cc2ccccc2s1 , please.
42

Tell me the measured %Inh of CNc1ncnc2[nH]ncc12 , please.
0
